Measured TGI by item
# System: DU-145 prostate
# procedure_text: NCI tumour cell line growth inhibition, 48 h

compound	units_of_measure	relational_operator	TGI
COc1cc(OC)c(C(=O)/C=C/c2cccc(C#N)c2)c(OC)c1	µM	=	6.37
CCOC(=O)/C=C(/C)Nc1nc2c(c(C(=O)OC)c1C#N)CCCC2	µM	>	100
COc1ccc(CC(=O)c2ccc(O)cc2O)cc1	µM	>	100
O=C(OCCNC(=O)N1CC1)OCCNC(=O)N1CC1	µM	>	10
CC(=O)N(C(C)=O)c1cc2c3c(c1)CCCN3CCC2	µM	>	10
CCOP(=O)(OCC)OC1c2[nH]cc(C(=O)OCc3ccccc3)c2-c2cc(C(=O)OC)[nH]c2C1OC (stereo not given)	µM	=	89.8
O=C1CC(=O)NC(=NNS(=O)(=O)c2ccc(Cl)cc2)N1	µM	>	100
N#CSCc1ccc(Cl)c(CSC#N)c1	µM	=	12.7
O=C(CC(Cl)=C(Cl)Cl)c1ccccc1	µM	>	100
C=C1CC[C@@H]2[C@](C)(COC(C)=O)[C@H](OC(C)=O)CC[C@@]2(C)[C@@H]1CC(Nc1ccc(S(=O)(=O)Nc2ccc(Cl)nn2)cc1)C1=CCOC1=O (stereo not given in full)	µM	=	3.45
COc1cc2c(c(OC)c1OC)-c1ccc(SC)cc1C(O)CC2 (stereo not given)	µM	>	100
Cc1ccc(N/C(SCc2ccccc2)=C(\C(Cl)=C(Cl)Cl)[N+](=O)[O-])c(C)c1	µM	>	100
O=c1oc2cc(O)ccc2c(O)c1Cc1c(O)c2ccc(O)cc2oc1=O	µM	>	100
Cn1cccc1-c1cc(-c2ccc(Br)cc2)[nH]c(=O)c1C#N	µM	>	100
Cc1nn(C)c(COc2ccc(N3CCN(S(=O)(=O)N(C)C)CC3)cc2)c1-c1cccc2c(CCCOc3cccc4ccccc34)c(C(=O)O)n(CCN3CCOCC3)c12	µM	=	16.7
CN(C)Cc1cc(N=Nc2ccc(Cl)cc2)cc(CN(C)C)c1O	µM	=	35.4
Cc1cccc(N/C(Sc2ccccc2)=C(/C(Cl)=C(Cl)Cl)[N+](=O)[O-])c1	µM	=	62.2
C=C1C[C@H](O)[C@H](Br)C(C)(C)C12CCC(C)(Cl)C(Br)C2 (stereo not given in full)	µM	=	15.8
CCN1C(=O)N(CC)C2C1NN=c1s/c(=C\c3ccccn3)c(=O)n12 (stereo not given)	µM	>	100
O=C(NNC(=O)c1csc(NC(=S)NC2CCCCC2)n1)c1ccccc1	µM	=	51.3
Cc1ccc2c(/C=C/c3ccc(N(C)C)cc3)ccc(C(C)C)cc1-2	µM	>	100
CC1C(C#N)(C#N)C(C#N)=C(N)C1(Cl)[N+](=O)[O-] (stereo not given)	µM	=	30.6
O=C(c1cc2c(c3ccccc13)NC1(CCCCC1)N=C2C(F)(F)F)C(F)(F)F	µM	=	19.6
Cc1ccc(Nc2nc3c(=O)n(C)c(=O)n(C)c3nc2Nc2ccc(C)cc2)cc1	µM	>	100
COc1ccc(/C=C(\C(=O)NCc2cccnc2)S(=O)(=O)c2ccccc2)cc1OC	µM	=	12.4
COC(=O)CCC(NC(=O)OC(C)(C)C)C(=O)NC(Cc1ccc(NC(=O)CCCC(C)=O)cc1)C(=O)NC(CCC(=O)OC)C(=O)OC (stereo not given)	µM	>	100
CC[C@H](CO)Nc1nc(NCc2ccccc2)c2ncn(C(C)C)c2n1	µM	>	100
COc1ccccc1C1c2cc3c(cc2OC(N2CCOCC2)C1C)OCO3 (stereo not given)	µM	=	51.4
O=C(N/N=C/c1ccccc1)c1cccc2nc3ccccc3nc12	µM	>	100
CCSc1nc(SCC)c2c(-c3ccc(OC)c(OC)c3)c(C#N)c(SCC)nc2n1	µM	=	47.8
c1ccc(CSC2(SCc3ccccc3)CCCCC2)cc1	µM	>	10
O1[As]2O[As]3O[As]1O[As](O2)O3	µM	=	7.21
Cc1cnc(CNC(=O)c2c(=O)c3ccc(N4CCCN(C)CC4)nc3n3c2sc2ccccc23)cn1	µM	=	6.29
Cc1ccc(-c2csc(NC(=O)N3CCN(c4cc5c(cc4F)c(=O)c(C(=O)O)cn5C4CC4)CC3)n2)cc1	µM	>	100
COc1ccc(-c2oc3c(OC)c(OC)cc(O)c3c(=O)c2OC)cc1	µM	>	100
Cc1cnc2sn(-c3ccc(Br)cc3)c(=O)c2c1	µM	>	100
CN(C)C(=O)c1cnc2oc3ccc(O)cc3c2c1-c1ccccc1	µM	>	25
O=C(Nc1ccc(Oc2cccc(F)c2)c(Cl)c1)c1cnccn1	µM	>	50
O=c1cc(-c2ccccc2)[nH]c2nccn12	µM	>	10
CC(C)N(C(C)C)S(=O)(=O)C[C@]12CC[C@H](CC13OCC(CS(=O)(=O)c1ccccc1)O3)C2(C)C (stereo not given in full)	µM	>	100
